# Tested on: human dermal microvascular endothelial cells (HDMEC)
# assay-summary: Proliferation without growth factors (15% FBS)
# Format: cell-based
# recorded-conditions: Homo sapiens, Endothelial cell, NS = overall inhibition less than 50%
pIC50: −log10 of the molar value.
observable: pIC50

## Input Looking for the measured pIC50 of COc1cc(C=Cc2ccc(O)cc2)cc(OC2OC(COC3OC(C)C(O)C(O)C3O)C(O)C(O)C2OC2OC(C)C(O)C(O)C2O)c1 (stereo not shown) , can you help?
## Output < 4.15

----------
# Test system: BAEC
# assay-summary: FGF-2-induced tube formation in Matrigel
# Type: cell-based, bovine
# recorded-conditions: Matrigel, FGF-2 25 ng/ml, 24 h
observable: IC50 (µM)
Give the quantity in µM, number only.

## Input Looking for the measured IC50 of COc1cc(C=Cc2ccc(O)cc2)cc(OC2OC(COC3OC(C)C(O)C(O)C3O)C(O)C(O)C2OC2OC(C)C(O)C(O)C2O)c1 (stereo not shown) [Compound 1] , can you help?
## Output 18.2
